# test: In vitro intrinsic microsomal clearance, human
# measurement.setup: microsomes
assay.endpoint: microsomal CLint (µL/min/mg)
Give the number; µL/min/mg is assumed, so skip it.

What value of microsomal CLint has been reported for the following compound? O=c1[nH]cnc2c(-n3cc(CCN4CCC5(CCc6ccccc65)CC4)cn3)nccc12 [Compound 19a]
24.7

====

# study.system: KDM5B (Homo sapiens)
# Sequence (Q9UGL1 26-772): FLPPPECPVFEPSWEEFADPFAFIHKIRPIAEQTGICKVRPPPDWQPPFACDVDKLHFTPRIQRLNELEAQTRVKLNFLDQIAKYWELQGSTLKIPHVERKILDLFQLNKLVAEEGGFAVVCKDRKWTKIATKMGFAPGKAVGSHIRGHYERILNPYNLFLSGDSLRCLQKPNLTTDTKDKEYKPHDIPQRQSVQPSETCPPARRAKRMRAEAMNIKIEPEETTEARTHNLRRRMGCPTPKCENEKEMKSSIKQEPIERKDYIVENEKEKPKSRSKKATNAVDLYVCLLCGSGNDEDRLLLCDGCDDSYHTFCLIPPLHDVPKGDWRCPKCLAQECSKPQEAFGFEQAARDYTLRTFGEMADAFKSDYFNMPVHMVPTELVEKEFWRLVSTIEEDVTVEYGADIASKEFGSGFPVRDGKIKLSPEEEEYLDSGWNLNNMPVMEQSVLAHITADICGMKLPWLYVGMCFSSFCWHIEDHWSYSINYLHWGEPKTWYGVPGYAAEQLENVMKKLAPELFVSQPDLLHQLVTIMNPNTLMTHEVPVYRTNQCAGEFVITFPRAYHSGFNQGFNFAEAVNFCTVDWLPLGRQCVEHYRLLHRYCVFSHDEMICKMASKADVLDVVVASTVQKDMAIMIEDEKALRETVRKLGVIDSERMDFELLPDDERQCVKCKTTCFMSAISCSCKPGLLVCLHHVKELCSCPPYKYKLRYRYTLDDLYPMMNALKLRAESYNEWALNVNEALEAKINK
# test: cell-based
assay.endpoint: EC50

What value of EC50 has been reported for the following compound? CC(C)c1c(-c2cnn(C(C)(C)C)c2)[nH]c2c(C#N)cnn2c1=O
300 nM

====

# test: In vitro intrinsic microsomal clearance, mouse
# measurement.setup: microsomes
assay.endpoint: microsomal CLint (µL/min/mg)
Give the number; µL/min/mg is assumed, so skip it.

What value of microsomal CLint has been reported for the following molecule? O=c1[nH]cnc2c(-n3cc(CCN4CCC5(CCc6ccccc65)CC4)cn3)nccc12 [Compound 19a]
7.5

====

# test: In vitro intrinsic microsomal clearance, rat
# measurement.setup: microsomes
assay.endpoint: microsomal CLint

What value of microsomal CLint has been reported for the following molecule? O=c1[nH]cnc2c(-n3cc(CCN4CCC5(CCc6ccccc65)CC4)cn3)nccc12 [Compound 19a]
19.8 µL/min/mg

====

# test: Kinetic aqueous solubility
assay.endpoint: solubility kinetic (µM)
Give the number; µM is assumed, so skip it.

What value of solubility kinetic has been reported for the following molecule? O=c1[nH]cnc2c(-n3cc(CCN4CCC5(CCc6ccccc65)CC4)cn3)nccc12 [Compound 19a]
93.3

====

# test: Human plasma protein binding
assay.endpoint: fraction unbound
Format: numeric value only, no unit, no commentary.

What value of fraction unbound has been reported for the following molecule? O=c1[nH]cnc2c(-n3cc(CCN4CCC5(CCc6ccccc65)CC4)cn3)nccc12 [Compound 19a]
0.11
